Reported seed-corrected z-score is given for each of the following sequences.
Assay: Identification of proteins required for the processing of the EWS-FLI1 nascent transcript;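 note: robust z of luciferase light less the median z of siRNAs with the same seed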
Conditions: TC32 Ewing sarcoma NR0B1-luc vs CMV-luc, 48 h; screened at 20 nM (by protocol)
Whole data set: some 59,000 sequences, median the read-out near -0.00055, cut for the lowest 2% near -2. Many of the other results were omitted from the sample, so the lowest values are more common in it than they were.
API doc: respond with a numeric literal and nothing else, no unit.

Entry UUCGAUGUCACAGGUCUGC against RGS14 ; seed-corrected z-score = -0.247

sequence UUCUAAGAAAGCGAGCUGC against EID2B , seed-corrected z-score observed: -0.614

Data point: AAACUUGUACACGUUCUUG against RPN2 ; seed-corrected z-score = 1.31

Entry UUCCUUAGAAACUGCAUAC against JMY ; seed-corrected z-score = -0.827

The reported value for UGAUUAUUAGGUACUACCC against RCN2 in terms of seed-corrected z-score is -2.4

----------
Test: Identification of proteins required for the processing of the EWS-FLI1 nascent transcript;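 note: robust z of luciferase light less the median z of siRNAs with the same seed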
Conditions: TC32 Ewing sarcoma NR0B1-luc vs CMV-luc, 48 h; screened at 20 nM (by protocol)
Whole data set: some 59,000 sequences, median the read-out near -0.00055, cut for the lowest 2% near -2. The full list was thinned out, with the lowest values kept by preference.
quantity.kind: seed-corrected z-score
Note: the reply should be a number with no unit written.

INSERT INTO results (chain_sequence, result_value) VALUES
  ('ACAGCUAUAAAGGUGAUCC against MTMR1', -2.56),
  ('UCUGAGUUUUGAGCUGUCC against MST1R', -0.112),
  ('UAAGAUGAUCGUGAACUUG against RPL39L', 0.982);

According to the records, this sequence AAUAGCUGCAUAACUGUCU against CLTA displays seed-corrected z-score of -3.36

Entry UGUAGGAACACUCAUCACC against KCNA4 — recorded seed-corrected z-score = -2.42

Input UUCGGACUCAGCUUCUCCA against EXD3 . Output seed-corrected z-score: 0.0948

The recorded seed-corrected z-score for entry UGGUCUAAGGCUUUGAUGC against KLK2 equals -0.348

----------
Test: Identification of proteins required for the processing of the EWS-FLI1 nascent transcript;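 note: robust z of luciferase light less the median z of siRNAs with the same seed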
Conditions: TC32 Ewing sarcoma NR0B1-luc vs CMV-luc, 48 h; screened at 20 nM (by protocol)
Description: Ewing sarcoma (ES) cells depend on the EWS-FLI1 fusion transcription factor for cell survival. […] Luciferase activity was assessed 48 hours post siRNA-transfection. Twenty microl of serum-free media containing Lipofectamine RNAiMax (0.05 microl) was added to wells containing siRNA (0.8 pmol). […] Luciferase expression was measured using OneGlo (Promega, Madison, WI). […]
Whole data set: some 59,000 sequences, median the read-out near -0.00055, cut for the lowest 2% near -2. Many of the other results were omitted from the sample, so the lowest values are more common in it than they were.
quantity.kind: seed-corrected z-score
Please give the numeric answer without any surrounding text.

See these solved cases before continuing.
INSERT INTO assay_data (chain_sequence, result_value) VALUES
  ('UCGGUUGAAACAUUUGUGG against IPO11', 0.941),
  ('UUAGUGUGAAUAGUGAUUU against PODXL', 0.827),
  ('UUCUCGAUCAUCCUGAUCU against BGN', -3),
  ('UAUGUACAGAGACACCAGG against MC5R', -2.92),
  ('UAAAGGGAACGAAACACCC against HSPA1B', 1.45),
  ('AUAGAUCUUUAUAUAAGCC against ATL1', -0.744),
  ('UCAAUGUUCACCACACGGC against PLEKHH1', -2.41),
  ('UAGCAUGUAACGUGUGACC against CNTNAP1', -0.734),
  ('AACACGUUGCCUGUCUUUC against NUTM2A-AS1', 0.413),
  ('UAUUCGUUAUCAAAUUGUG against TMOD3', 0.393);

The sequence identified as UAGUGCACCACGCAGGUCU against FKBP1A registered its seed-corrected z-score at 0.92

Reported seed-corrected z-score ( AAAGAUACAUCUGCCUUCC against CMPK1 ) = -0.0168

----------
Assay: Identification of proteins required for the processing of the EWS-FLI1 nascent transcript;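 note: robust z of luciferase light less the median z of siRNAs with the same seed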
Conditions: TC32 Ewing sarcoma NR0B1-luc vs CMV-luc, 48 h; screened at 20 nM (by protocol)
Experimental: Ewing sarcoma (ES) cells depend on the EWS-FLI1 fusion transcription factor for cell survival. […] Luciferase activity was assessed 48 hours post siRNA-transfection. Twenty microl of serum-free media containing Lipofectamine RNAiMax (0.05 microl) was added to wells containing siRNA (0.8 pmol). […] Luciferase expression was measured using OneGlo (Promega, Madison, WI). […]
Over roughly 59,000 sequences, the read-out has its median near -0.00055; the lowest 2% begin near -2. The sample as a whole holds a higher share of the lowest values than the screen did.
Checkbox rule: seed-corrected z-score lower than -0.1 = Criterion met; seed-corrected z-score not lower than -0.1 = Criterion not met.

**Query** Does AAAUGUGCUCAAACUGUCU against ARL14 have seed-corrected z-score strictly under -0.1?
**Result** Criterion met

**Query** Strictly below -0.1 in seed-corrected z-score? AUAUCAUUUACUGACAUAG against DNAJB4
**Result** Criterion met

**Query** In the record for UUUCUUACCAUAGUUGUCC against TCF7L1 , is seed-corrected z-score less than -0.1?
**Result** Criterion not met

**Query** A record lists UUGCGAUGGAAAGACAUGU against CD5 . Is its seed-corrected z-score below -0.1?
**Result** Criterion not met

**Query** In plain terms, does AUCGGCAAAGUAAUUCUGG against NECAB3 come in under -0.1 for seed-corrected z-score?
**Result** Criterion not met

**Query** For AAUGUACAAGUGGUCAUUC against MAGED2 , is the recorded seed-corrected z-score below the cut-off of -0.1?
**Result** Criterion met

----------
Experiment: Identification of proteins required for the processing of the EWS-FLI1 nascent transcript;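 note: robust z of luciferase light less the median z of siRNAs with the same seed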
Details: TC32 Ewing sarcoma NR0B1-luc vs CMV-luc, 48 h; screened at 20 nM (by protocol)
The full ranking holds about 59,000 sequences; the median of the read-out is about -0.00055, and the lowest 2% start at about -2. Only a selection was taken, and the lowest values are over-represented in it overall.
Class boundaries, taken from values of seed-corrected z-score, are as follows: low = under -1, moderate = from -1 up to 0.2, high = 0.2 and over

INSERT INTO results (chain_sequence, class_name) VALUES
  ('UCAUAGAAGAGGUCUGUCU against PHF5A', 'low'),
  ('UUCUUGAAAUCCAACCACC against ACSM6', 'high');

**Query** Record UCCAGUUGUAUGUAAGGGC against ZDHHC6 — which class?
**Result** low

**Query** Sort UGUGCACUAAUGCGAAUCG against MYO5C into one of the categories.
**Result** moderate

**Query** Field: class (seed-corrected z-score) — entry: UCUAUAUCUCCGUAAUUCC against TRRAP
**Result** low

**Query** Please report the category associated with UAUUAGGUCUUAUUUAUUC against NXNL2 , nothing else.
**Result** high

**Query** Which bin, given its seed-corrected z-score, does UCGGUUGCGAAUCAGAAUC against NOTCH2 occupy?
**Result** low

----------
Test: Identification of proteins required for the processing of the EWS-FLI1 nascent transcript;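 note: robust z of luciferase light less the median z of siRNAs with the same seed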
Settings: TC32 Ewing sarcoma NR0B1-luc vs CMV-luc, 48 h; screened at 20 nM (by protocol)
Over roughly 59,000 sequences, the read-out has its median near -0.00055; the lowest 2% begin near -2. Many of the other results were omitted from the sample, so the lowest values are more common in it than they were.
Reported seed-corrected z-score by item:
Would you mind answering with just the numeric figure?

Record excerpt, results attached:
INSERT INTO results (chain_sequence, quantity_kind, result_value) VALUES
  ('UUAACUUUCUCGAUAGAAC against SLC45A2', 'seed-corrected z-score', 0.853),
  ('UGCAGGUUCAGCUUGUCUG against LGALS2', 'seed-corrected z-score', -2.58),
  ('UUAGAGUCCAGAUUCAGGA against ST3GAL3', 'seed-corrected z-score', 0.675),
  ('UAUCCUUCAGGCUAAGAUG against SGOL1', 'seed-corrected z-score', -2.83);

seed-corrected z-score in this record for UGCUUGUCUAAGCCUUUGG against RPS12P9 : -2.08

Input UUAGUUGAGGGUGAUCCCG against MXRA5 . Output seed-corrected z-score: 0.422

----------
Assay: Identification of proteins required for the processing of the EWS-FLI1 nascent transcript;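 note: robust z of luciferase light less the median z of siRNAs with the same seed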
Conditions: TC32 Ewing sarcoma NR0B1-luc vs CMV-luc (EWS-FLI1 target promoter against control promoter), 48 h; screened at 20 nM (by protocol)
Over roughly 59,000 sequences, the read-out has its median near -0.00055; the lowest 2% begin near -2. The full list was thinned out, with the lowest values kept by preference.
quantity.kind: seed-corrected z-score
Enter the number alone.

INSERT INTO results (chain_sequence, quantity_kind, result_value) VALUES
  ('UGAAGGCCAACCGCUCUGU against ALG1L6P', 'seed-corrected z-score', 0.486),
  ('UCAGAGACCAGCUGUUUCU against IGSF23', 'seed-corrected z-score', -0.0662);

Measured seed-corrected z-score of UUACGGUACUUGGUCUCGC against NRAP : -1.11

For this sequence ( AUAUGGUCAAAUGAGUUAG against KIF3B ), measured seed-corrected z-score is 1.67

Please fill in: seed-corrected z-score reported for UCAGGGUAUUCAUUGGUGC against INCA1 = -3.45

Entry UAACGAAUAAUUUCUGCUC against HPGDS , seed-corrected z-score reported as -0.285

These data points were gathered from PubChem BioAssay AID1159506.
